Here's a batch of compounds along with measured IC50 for MAPK14 (human) (UniProt Q16539).

Examples with their reported IC50 follow.
compound: CC(=O)Nc1sc(Cl)c(N2CC(Oc3ccc(F)cc3F)CCC2=O)c1Cl (stereo not drawn)
target-under-test: MAPK14 (human) (UniProt Q16539)
Sequence (Q16539 whole entry, looked up): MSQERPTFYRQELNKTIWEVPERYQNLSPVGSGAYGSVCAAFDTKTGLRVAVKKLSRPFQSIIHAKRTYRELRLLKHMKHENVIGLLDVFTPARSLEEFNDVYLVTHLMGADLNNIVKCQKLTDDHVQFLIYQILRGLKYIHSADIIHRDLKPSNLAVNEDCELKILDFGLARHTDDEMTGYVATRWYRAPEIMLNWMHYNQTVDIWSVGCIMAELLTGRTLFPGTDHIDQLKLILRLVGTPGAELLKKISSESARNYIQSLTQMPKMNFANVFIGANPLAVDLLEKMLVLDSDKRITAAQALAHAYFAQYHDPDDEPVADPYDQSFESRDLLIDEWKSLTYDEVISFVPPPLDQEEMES
measurement: ≤ 10 µM
//
compound: Cc1cccc(C)c1N1CC(CCCc2ccccc2)CCC1=O (stereo not drawn)
target-under-test: MAPK14 (human) (UniProt Q16539)
measurement: ≤ 10 µM
//
compound: Nc1ccc(Cl)c(N2CC(Cc3ccc(F)cc3F)CSC2=O)c1Cl (stereo not drawn)
target-under-test: MAPK14 (human) (UniProt Q16539)
measurement: ≤ 10 µM
//
compound: Cc1ccc(CC2CCC(=O)N(c3c(Cl)csc3Cl)C2)c(C)c1 (stereo not drawn)
target-under-test: MAPK14 (human) (UniProt Q16539)
measurement: ≤ 10 µM
//
compound: O=C1CCC(Sc2ccccc2F)CN1C1C(Cl)CCCC1Cl (stereo not drawn)
target-under-test: MAPK14 (human) (UniProt Q16539)
measurement: ≤ 10 µM

-- ask Please give the measured IC50 for this compound: CS(=O)(=O)NCCNc1cc(Cl)c(N2CC(Cc3ccc(F)cc3F)CCC2=O)c(Cl)c1 (stereo not drawn)
-- reply ≤ 10 µM

-- ask Please give the measured IC50 for this compound: CNc1sc(Cl)c(N2CC(Cc3ccc(F)cc3F)CCC2=O)c1Cl (stereo not drawn)
-- reply ≤ 10 µM

-- ask Please give the measured IC50 for this compound: CN1CCN(C(=O)CNc2cc(Cl)c(N3CC(Cc4ccc(F)cc4F)CCC3=O)c(Cl)c2)CC1 (stereo not drawn)
-- reply ≤ 10 µM

-- ask Please give the measured IC50 for this compound: O=C1CCC(Cc2ccc3ccccc3c2)CN1c1c(Cl)cncc1Cl (stereo not drawn)
-- reply ≤ 10 µM

-- ask Please give the measured IC50 for this compound: Nc1cc(Cl)c(N2CC(Cc3ccc(F)cc3F)CSC2=O)c(Cl)c1 (stereo not drawn)
-- reply ≤ 10 µM

-- ask Please give the measured IC50 for this compound: Cc1ccc(SC2CCC(=O)N(c3c(Cl)cccc3Cl)C2)cc1 (stereo not drawn)
-- reply ≤ 10 µM

-- ask Please give the measured IC50 for this compound: O=C1CCC(Sc2ccccc2)CN1C1C(Cl)CCCC1Cl (stereo not drawn)
-- reply ≤ 10 µM

-- ask Please give the measured IC50 for this compound: Cc1ccccc1SC1CCC(=O)N(c2c(Cl)cccc2Cl)C1 (stereo not drawn)
-- reply ≤ 10 µM

-- ask Please give the measured IC50 for this compound: O=C1CCC(Cc2ccccc2)CN1c1c(Cl)cccc1Cl (stereo not drawn)
-- reply ≤ 10 µM

-- ask Please give the measured IC50 for this compound: O=C1CSC(Cc2cccc3ccccc23)CN1c1c(Cl)cccc1Cl (stereo not drawn)
-- reply ≤ 10 µM

-- ask Please give the measured IC50 for this compound: COc1ccccc1CC1CCC(=O)N(c2c(Cl)cncc2Cl)C1 (stereo not drawn)
-- reply ≤ 10 µM

* * *

Here's a batch of molecules along with measured pIC50 for MAPK14 (human) (UniProt Q16539).
pIC50: −log10 of the molar value.

molecule: Cc1cc(C(=O)O)cc(C)c1N1C[C@@H](Cc2ccc(F)cc2F)C[C@@H](C)C1=O
pIC50: ≥ 5.00

# ---- query molecule ----
-- ask Please give the measured pIC50 for this molecule: Cc1cccc(C)c1N1CC(Cc2ccccc2O)CCC1=O (stereo not drawn)
-- reply ≥ 5.00
